Answer each item with its documented IC50.
# study target: E. coli GroEL/ES (Escherichia coli)
# Sequence (P0A6F5 whole entry, looked up): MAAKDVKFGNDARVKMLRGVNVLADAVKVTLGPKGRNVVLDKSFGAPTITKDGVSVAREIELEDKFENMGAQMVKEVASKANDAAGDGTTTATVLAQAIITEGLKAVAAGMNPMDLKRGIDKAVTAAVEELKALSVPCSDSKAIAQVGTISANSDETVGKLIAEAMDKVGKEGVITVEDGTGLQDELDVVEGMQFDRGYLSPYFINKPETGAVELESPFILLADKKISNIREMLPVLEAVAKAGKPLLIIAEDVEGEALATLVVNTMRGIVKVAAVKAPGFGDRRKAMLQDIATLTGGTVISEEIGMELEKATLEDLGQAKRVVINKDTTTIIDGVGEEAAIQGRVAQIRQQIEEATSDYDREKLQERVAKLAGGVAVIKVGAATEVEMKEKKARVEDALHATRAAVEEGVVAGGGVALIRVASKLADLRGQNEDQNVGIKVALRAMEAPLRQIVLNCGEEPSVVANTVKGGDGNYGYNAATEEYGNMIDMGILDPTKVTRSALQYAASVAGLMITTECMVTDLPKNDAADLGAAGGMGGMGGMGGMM
# experiment summary: Inhibition of Escherichia coli GroEL expressed in Escherichia coliDH5alpha/Escherichia coli GroES expressed in Escherichia coli BL21 (DE3) assessed as reduction in GroEL/GroES-mediated denatured pig heart mitochondrial MDH refolding by measuring MDH enzyme activity using sodium mesoxalate as substrate after 20 to 40 mins by spectrometric analysis
Express the result in µM but write the number alone.

So, O=[N+]([O-])c1cc(S(=O)(=O)Nc2ccc(-c3nc4ccccc4o3)cc2)ccc1Cl ? Its IC50 was 20

# IC50 of O=S(=O)(Nc1ccc(-c2nc3ccccc3o2)cc1)c1ccc(F)cc1 = 93

Value of IC50 reported for the compound O=S(=O)(Nc1ccc2oc(-c3ccc(NS(=O)(=O)c4cccc5nonc45)cc3)nc2c1)c1ccc(Cl)s1 is 9.3

IC50 reported for this compound N#Cc1ccc(S(=O)(=O)Nc2ccc(-c3nc4cc(NS(=O)(=O)c5ccc(C#N)cc5)ccc4o3)cc2)cc1 : 35

IC50 measured on O=S(=O)(Nc1ccc(-c2nc3ccccc3o2)cc1)c1ccc(F)c(C(F)(F)F)c1 = 34

Measured IC50, C=Cc1ccc(S(=O)(=O)Nc2ccc(-c3nc4ccccc4o3)cc2)cc1 : 91

Measured IC50 of O=S(=O)(Nc1ccc2oc(-c3ccc(NS(=O)(=O)c4ccc(Cl)s4)cc3)nc2c1)c1cccs1 : 4

Looking up Cc1cccc(S(=O)(=O)Nc2ccc(-c3nc4ccccc4o3)cc2)c1 , I found its IC50 recorded as 92

Consider NCc1ccc(S(=O)(=O)Nc2ccc3oc(-c4ccc(NS(=O)(=O)c5ccc(Cl)s5)cc4)nc3c2)cc1 . Its measured IC50 is 4.6

Measured IC50 of O=S(=O)(Nc1ccc2oc(-c3ccccc3)nc2c1)c1ccc(Cl)c(Cl)c1 : 79

The value of IC50 measured for the compound O=S(=O)(Nc1ccc2oc(-c3ccccc3)nc2c1)c1ccccc1Cl turned out to be 90

get_value(item= O=S(=O)(Nc1ccc(-c2nc3ccccc3o2)cc1)c1ccc(Cl)s1 , readout=IC50) returns 53

Entry CCc1ccc(S(=O)(=O)Nc2ccc(-c3nc4ccccc4o3)cc2)cc1 , IC50 reported as 91

// data source = ChEMBL document CHEMBL4387722
